Data credit: ChEMBL document CHEMBL4823252

experiment: Cmax in Sprague-Dawley rat at 10 mg/kg, po; format: ADME, organism-based; design: route oral, dose 10 mg/kg; settings: in vivo
outcome_measure: Cmax (ng/mL)
Reply with just the number (in ng/mL).

Briefly, Cmax measured for Cc1c(NC(=O)CCN2CCCC2)c[nH]c1/C=C1\C(=O)Nc2ccc(F)cc21 : 1880

----------
test: AUC (0 to last) in Sprague-Dawley rat at 1 mg/kg, iv; type: ADME, organism-based; parameters: route intravenous, time 0 - last, dose 1 mg/kg; settings: in vivo
outcome_measure: AUC(0-t)

Briefly, AUC(0-t) measured for Cc1c(NC(=O)CCN2CCCC2)c[nH]c1/C=C1\C(=O)Nc2ccc(F)cc21 : 2880 ng·h/mL

----------
assay: AUC (0 to infinity) in Sprague-Dawley rat at 1 mg/kg, iv; format: ADME, organism-based; set-up: route intravenous, time infinity, dose 1 mg/kg; details: in vivo
outcome_measure: AUC(0-inf) (ng·h/mL)
Reply with just the number (in ng·h/mL).

Briefly, AUC(0-inf) measured for Cc1c(NC(=O)CCN2CCCC2)c[nH]c1/C=C1\C(=O)Nc2ccc(F)cc21 : 2970

----------
system: MV4-11; experiment: Antiproliferative activity against human MV4-11 cells incubated for 72 hrs by Cell Counting Kit-8 assay; format: functional, cell-based; details: MV4-11, 72 h
outcome_measure: IC50 (nM)
Reply with just the number (in nM).

# count of solved cases: 8
{"molecule": "Cc1c(NC(=O)C2CCNCC2)c[nH]c1/C=C1\\C(=O)Nc2ccc(F)cc21", "measured_number": 177}
{"molecule": "Cc1[nH]c(/C=C2\\C(=O)Nc3ccc(F)cc32)c(C)c1NC(=O)[C@@H]1CCCN1", "measured_number": 40.9}
{"molecule": "CCN(CC)CC(=O)Nc1c[nH]c(/C=C2\\C(=O)Nc3ccc(F)cc32)c1C", "measured_number": 81.7}
{"molecule": "COc1ccc2c(c1)/C(=C/c1[nH]cc(NC(=O)CCN3CCCC3)c1C)C(=O)N2", "measured_number": 28.9}
{"molecule": "Cc1c(NC(=O)CCN2CCCCC2)c[nH]c1/C=C1\\C(=O)Nc2ccc(F)cc21", "measured_number": 44.2}
{"molecule": "Cc1c(NC(=O)CN2CCCC2)c[nH]c1/C=C1\\C(=O)Nc2ccc(F)cc21", "measured_number": 77}
{"molecule": "Cc1c(NC(=O)CN2CCCCC2)c[nH]c1/C=C1\\C(=O)Nc2ccc(F)cc21", "measured_number": 252}
{"molecule": "Cc1c(NC(=O)CCN2CCN(C)CC2)c[nH]c1/C=C1\\C(=O)Nc2ccc(F)cc21", "measured_number": 41.3}

Briefly, IC50 measured for Cc1c(NC(=O)CC2CCCN2)c[nH]c1/C=C1\C(=O)Nc2ccc(F)cc21 (centres undefined) : 50

----------
test: AUC (0 to last) in Sprague-Dawley rat at 10 mg/kg, po; type: ADME, organism-based; parameters: route oral, time 0 - last, dose 10 mg/kg; conditions: in vivo
outcome_measure: AUC(0-t) (ng·h/mL)
Reply with just the number (in ng·h/mL).

Briefly, AUC(0-t) measured for Cc1c(NC(=O)CCN2CCCC2)c[nH]c1/C=C1\C(=O)Nc2ccc(F)cc21 : 21200

----------
Target: Receptor-type tyrosine-protein kinase FLT3 (Homo sapiens, UniProt P36888)
Sequence (P36888 whole entry): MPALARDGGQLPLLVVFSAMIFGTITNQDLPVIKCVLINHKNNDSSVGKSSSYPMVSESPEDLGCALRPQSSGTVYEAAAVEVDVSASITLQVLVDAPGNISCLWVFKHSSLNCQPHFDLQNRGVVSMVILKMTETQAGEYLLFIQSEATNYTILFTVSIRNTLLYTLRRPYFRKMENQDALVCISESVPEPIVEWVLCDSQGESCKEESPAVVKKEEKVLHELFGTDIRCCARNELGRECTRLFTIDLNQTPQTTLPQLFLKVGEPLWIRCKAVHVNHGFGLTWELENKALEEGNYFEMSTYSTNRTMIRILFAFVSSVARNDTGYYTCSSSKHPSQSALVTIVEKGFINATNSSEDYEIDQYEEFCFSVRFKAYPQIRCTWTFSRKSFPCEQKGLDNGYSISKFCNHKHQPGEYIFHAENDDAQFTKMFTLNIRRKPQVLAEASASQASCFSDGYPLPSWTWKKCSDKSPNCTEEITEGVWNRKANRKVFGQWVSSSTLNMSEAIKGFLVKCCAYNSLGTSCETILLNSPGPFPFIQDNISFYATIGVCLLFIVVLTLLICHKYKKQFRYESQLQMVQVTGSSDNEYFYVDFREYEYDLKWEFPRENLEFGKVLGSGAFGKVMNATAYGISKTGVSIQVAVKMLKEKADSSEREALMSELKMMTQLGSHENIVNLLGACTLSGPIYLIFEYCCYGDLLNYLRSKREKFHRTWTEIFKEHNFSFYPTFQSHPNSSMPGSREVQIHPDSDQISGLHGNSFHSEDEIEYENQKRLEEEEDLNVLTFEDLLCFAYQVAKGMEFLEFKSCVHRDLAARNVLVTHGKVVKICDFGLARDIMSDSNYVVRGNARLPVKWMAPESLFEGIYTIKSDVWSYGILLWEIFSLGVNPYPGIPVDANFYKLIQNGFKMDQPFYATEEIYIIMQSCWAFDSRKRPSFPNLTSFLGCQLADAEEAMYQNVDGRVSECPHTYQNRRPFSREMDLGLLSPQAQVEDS
Assay: Inhibition of FLT3 (unknown origin) incubated for 30 mins in presence of ATP by mobility shift assay
outcome_measure: pIC50
Formally, pIC50 is defined as -log10 of the concentration c, with c in mol/L.

{"compound": "Cc1c(NC(=O)CCNC2CCCC2)c[nH]c1/C=C1\\C(=O)Nc2ccc(F)cc21", "measured_target": "Receptor-type tyrosine-protein kinase FLT3 (Homo sapiens, UniProt P36888)", "pIC50": 9.22}
{"compound": "Cc1c(NC(=O)CCN2CCN(C)CC2)c[nH]c1/C=C1\\C(=O)Nc2ccc(F)cc21", "measured_target": "Receptor-type tyrosine-protein kinase FLT3 (Homo sapiens, UniProt P36888)", "pIC50": 8.52}
{"compound": "Cc1c(NC(=O)CN2CCN(C)CC2)c[nH]c1/C=C1\\C(=O)Nc2ccc(F)cc21", "measured_target": "Receptor-type tyrosine-protein kinase FLT3 (Homo sapiens, UniProt P36888)", "pIC50": 8.57}
{"compound": "Cc1c(NC(=O)C2CCCCN2)c[nH]c1/C=C1\\C(=O)Nc2ccc(F)cc21 (stereo unspecified)", "measured_target": "Receptor-type tyrosine-protein kinase FLT3 (Homo sapiens, UniProt P36888)", "pIC50": 8.62}
{"compound": "CCN(CC)CCC(=O)Nc1c[nH]c(/C=C2\\C(=O)Nc3ccc(F)cc32)c1C", "measured_target": "Receptor-type tyrosine-protein kinase FLT3 (Homo sapiens, UniProt P36888)", "pIC50": 8.70}

Switching to the query record.
Briefly, pIC50 measured for Cc1c(NC(=O)CC2CCCN2)c[nH]c1/C=C1\C(=O)Nc2ccc(F)cc21 (stereo unspecified) : 8.57

----------
test: MRT (0 to last) in Sprague-Dawley rat at 10 mg/kg, po; format: ADME, organism-based; settings: in vivo
outcome_measure: MRT last (h)
Reply with just the number (in h).

Briefly, MRT last measured for Cc1c(NC(=O)CCN2CCCC2)c[nH]c1/C=C1\C(=O)Nc2ccc(F)cc21 : 6.6

----------
assay: AUC (0 to infinity) in Sprague-Dawley rat at 10 mg/kg, po; type: ADME, organism-based; set-up: route oral, time infinity, dose 10 mg/kg; conditions: in vivo
outcome_measure: AUC(0-inf) (ng·h/mL)
Reply with just the number (in ng·h/mL).

Briefly, AUC(0-inf) measured for Cc1c(NC(=O)CCN2CCCC2)c[nH]c1/C=C1\C(=O)Nc2ccc(F)cc21 : 22700

----------
tested on: MV4-11; assay: Antiproliferative activity against human MV4-11 cells incubated for 72 hrs by Cell Counting Kit-8 assay; format: functional, cell-based; settings: MV4-11, 72 h
outcome_measure: pIC50
Formally, pIC50 is defined as -log10 of the concentration c, with c in mol/L.

# count of solved cases: 2
{"molecule": "Cc1c(NC(=O)CN2CCN(C)CC2)c[nH]c1/C=C1\\C(=O)Nc2ccc(F)cc21", "pIC50": 7.29}
{"molecule": "Cc1c(NC(=O)CCN2CCOCC2)c[nH]c1/C=C1\\C(=O)Nc2ccc(F)cc21", "pIC50": 6.88}

Briefly, pIC50 measured for CCCNCCC(=O)Nc1c[nH]c(/C=C2\C(=O)Nc3ccc(F)cc32)c1C : 7.46

Briefly, pIC50 measured for Cc1c(NC(=O)[C@H]2CCCN2)c[nH]c1/C=C1\C(=O)Nc2ccc(F)cc21 : 7.16

Briefly, pIC50 measured for CCNCCC(=O)Nc1c[nH]c(/C=C2\C(=O)Nc3ccc(F)cc32)c1C : 7.46

Briefly, pIC50 measured for Cc1c(NC(=O)C2CCCCN2)c[nH]c1/C=C1\C(=O)Nc2ccc(F)cc21 (stereo not given) : 7.26

Briefly, pIC50 measured for Cc1c(NC(=O)CCNC(C)(C)C)c[nH]c1/C=C1\C(=O)Nc2ccc(F)cc21 : 7.35

Briefly, pIC50 measured for CCN(CC)CCNC(=O)c1c(C)[nH]c(/C=C2\C(=O)Nc3ccc(F)cc32)c1C : 7.50

Briefly, pIC50 measured for Cc1c(NC(=O)CCNC2CCCC2)c[nH]c1/C=C1\C(=O)Nc2ccc(F)cc21 : 7.53

Briefly, pIC50 measured for Cc1c(NC(=O)CCN2CCCC2)c[nH]c1/C=C1\C(=O)Nc2ccc(Br)cc21 : 7.23
